Reference source for all entries: ChEMBL document CHEMBL1201862

# Tested on: SK-MEL-2
# experiment.notes: NCI tumour cell line growth inhibition, 48 h
The source made the active and inactive calls. Cut-off read from the data, not from the text of the source: active = GI50 up to about 1.1 µM and inactive = higher.
Write down the outcome that applies. Available outcomes: yes for active, no for inactive

Asked: I would be grateful if you could indicate the recorded call for O=[N+]([O-])c1cc2c([N+](=O)[O-])cccc2o1 .
Given back: no

Asked: I would be grateful if you could indicate the recorded call for CCCCCC/C=C\CCCCCCCCCc1c(O)c(OC)cc(O)c1CN(C)C .
Given back: no

Asked: I would be grateful if you could indicate the recorded call for COC(=O)C(C(=O)OC)C1CCCC(=O)C1 (stereo not drawn) .
Given back: yes

Asked: I would be grateful if you could indicate the recorded call for CCCCCc1c(CCCC)c(O)nc2nc(NC(=O)CCCC)ccc12 .
Given back: no

Asked: I would be grateful if you could indicate the recorded call for CCN(CC)CCNc1ccc2nnn3c4ccc(OC(C)=O)cc4c(=O)c1c23 .
Given back: no

Asked: I would be grateful if you could indicate the recorded call for CC(C)c1cccc(=O)c(O)c1 [HINOKITIOL] .
Given back: no

Asked: I would be grateful if you could indicate the recorded call for Cc1ccc(/C=C2\N=C(N3CCOCC3)NC2=O)cc1 .
Given back: no

Asked: I would be grateful if you could indicate the recorded call for CCC(=O)NC(Nc1ccccc1F)(C(F)(F)F)C(F)(F)F .
Given back: no

Asked: I would be grateful if you could indicate the recorded call for COc1ccc([C@@H]2C[C@@H]3C(=O)OC(=O)[C@@H]3c3c2c2ccccc2n3C)cc1 .
Given back: no

Asked: I would be grateful if you could indicate the recorded call for Cc1ccc(S(=O)(=O)NNC(=O)Nc2ccc([N+](=O)[O-])cc2)cc1 .
Given back: no

Asked: I would be grateful if you could indicate the recorded call for C=C(C=O)[C@@H]1C2OC(=O)C(=C)[C@@H]2CC(O)[C@@]1(C)CC (stereo partly drawn) .
Given back: no

Asked: I would be grateful if you could indicate the recorded call for CC(N)C(C)c1ccccc1 (stereo not drawn) .
Given back: no

Asked: I would be grateful if you could indicate the recorded call for COc1cc2oc3cc(=O)cc4oc(-c5ccccc5)cc(c2c2c1CCC(c1ccccc1)O2)c43 (stereo not drawn) .
Given back: no

Asked: I would be grateful if you could indicate the recorded call for Cc1nc(N)sc1C(=O)/C=C\c1ccc2c(c1)OCO2 .
Given back: no

Asked: I would be grateful if you could indicate the recorded call for O=C(NCCCCNCCCNC(=O)c1ccccc1)c1ccccc1 .
Given back: no

Asked: I would be grateful if you could indicate the recorded call for O=c1oc2ccccc2cc1-c1ccc([N+](=O)[O-])cc1 .
Given back: no

Asked: I would be grateful if you could indicate the recorded call for Nc1[nH]c(Nc2ccc(Cl)c(Cl)c2)nc2ncnc1-2 .
Given back: no

Asked: I would be grateful if you could indicate the recorded call for COc1cc(C)c(O)c(C(=O)O)c1 .
Given back: no

Asked: I would be grateful if you could indicate the recorded call for COC(=O)C1=CC(=O)C(C(=O)Nc2ccc(OC)cc2)C(c2ccccc2)O1 (stereo not drawn) .
Given back: no

Asked: I would be grateful if you could indicate the recorded call for O=c1[nH]c2cc(F)c(F)cc2nc1Cc1ccccc1 .
Given back: no

Asked: I would be grateful if you could indicate the recorded call for O=C1C(Cl)=C(N[C@@H](Cc2ccccc2)C(=O)OCc2ccccc2)C(=O)c2c(O)ccc(O)c21 .
Given back: no

Asked: I would be grateful if you could indicate the recorded call for Cc1cc(N(C)C)ccc1/N=N/c1ccc2ncccc2c1 .
Given back: no

Asked: I would be grateful if you could indicate the recorded call for Cc1cc([N+](=O)[O-])c(C)c2c1[nH]c1ccc(Cl)cc12 .
Given back: no

====

# Tested on: HCC 2998
# experiment.notes: NCI tumour cell line growth inhibition, 48 h
Activity calls are given as the source filed them. Rule as the data show it: active = GI50 up to about 1.1 µM and inactive = higher.
Write down the outcome that applies. Available outcomes: active, inactive

Asked: I would be grateful if you could indicate the recorded call for COC(=O)C1=CC(=O)C(C(=O)Nc2ccc(OC)cc2)C(c2ccccc2)O1 (centres undefined) .
Given back: inactive

Asked: I would be grateful if you could indicate the recorded call for COc1ccc(Cn2nc(OCc3ccccn3)c3cc([N+](=O)[O-])ccc32)cc1 .
Given back: inactive

Asked: I would be grateful if you could indicate the recorded call for O=c1oc2ccccc2cc1-c1ccc([N+](=O)[O-])cc1 .
Given back: inactive

Asked: I would be grateful if you could indicate the recorded call for CNc1ncc(-c2nnnn2-c2ccccc2)c(CN(C)C)n1 .
Given back: inactive

Asked: I would be grateful if you could indicate the recorded call for CCOc1ccc2nc(NC(=O)C(=O)C(C(=O)c3ccccc3-c3ccccc3)C3OC(=O)c4ccccc43)sc2c1 (centres undefined) .
Given back: inactive

Asked: I would be grateful if you could indicate the recorded call for COc1ccc(NC(=S)N/N=C2\C(=O)Nc3ccccc32)cc1 .
Given back: inactive

Asked: I would be grateful if you could indicate the recorded call for CCOC(=O)Oc1c(OC)cc(C(=O)NC2CCc3cc(OC)c(OC)c(OC)c3-c3ccc(SC)c(=O)cc32)cc1OC (centres undefined) .
Given back: active

Asked: I would be grateful if you could indicate the recorded call for Clc1ccc(C[P+](c2ccccc2)(c2ccccc2)c2ccccc2)cc1Cl .
Given back: inactive

Asked: I would be grateful if you could indicate the recorded call for CC1(C)OC[C@@H]([C@@]2(COC(c3ccccc3)(c3ccccc3)c3ccccc3)CC=CC(=O)O2)O1 .
Given back: inactive

====

Assign GI50 to each entry below.
# Tested on: HOP-92
# experiment.notes: NCI tumour cell line growth inhibition, 48 h
The source made the active and inactive calls. Rule as the data show it: active = GI50 up to about 1.1 µM and inactive = higher.

Asked: Look up GI50: Clc1ccc(C[P+](c2ccccc2)(c2ccccc2)c2ccccc2)cc1Cl
Given back: 1.62 µM (inactive)

Asked: Look up GI50: O=[N+]([O-])c1ccc2nc(=S)[nH]n2c1
Given back: > 100 µM (inactive)

Asked: Look up GI50: CCCCC(=O)Nc1ccc2cc(C(=O)OC)c(=O)[nH]c2n1
Given back: > 100 µM (inactive)

Asked: Look up GI50: Cc1cc(NS(=O)(=O)c2ccc(NC(=O)c3cccc4c(Nc5ccc(S(=O)(=O)Nc6cc(C)on6)cc5)c5ccc(Cl)cc5nc34)cc2)no1
Given back: 24.3 µM (inactive)

Asked: Look up GI50: CC(C)Cc1cc(CCC(=O)Nc2ccccc2[N+](=O)[O-])nc(NC#N)n1
Given back: > 100 µM (inactive)

Asked: Look up GI50: O=c1oc2ccccc2cc1-c1ccc([N+](=O)[O-])cc1
Given back: > 100 µM (inactive)

Asked: Look up GI50: CN(C)CCCCN1c2ccccc2Sc2ccc(C(=O)c3ccccc3)cc21
Given back: 2.44 µM (inactive)

Asked: Look up GI50: O=S1(=O)C(c2ccccc2)=C(O)c2ccccc21
Given back: > 100 µM (inactive)

Asked: Look up GI50: Cc1ccc(NC(=O)CC/C(CC(=O)C(C)(C)C)=N/Nc2nnc(C)n2N)cc1C
Given back: > 100 µM (inactive)

Asked: Look up GI50: CC(C)(c1ccccc1)c1ccc(OC#N)cc1
Given back: 37.3 µM (inactive)

====

# Test system: SR
# experiment.notes: NCI tumour cell line growth inhibition, 48 h
Activity calls are given as the source filed them. Cut-off read from the data, not from the text of the source: active = GI50 up to about 1.1 µM and inactive = higher.
Write down the outcome that applies. Available outcomes: YES (active), NO (inactive)

Asked: I would be grateful if you could indicate the recorded call for NNC(=O)Cn1ccnn1 .
Given back: NO

Asked: I would be grateful if you could indicate the recorded call for Cc1ccc(/C=C2\N=C(N3CCOCC3)NC2=O)cc1 .
Given back: NO

Asked: I would be grateful if you could indicate the recorded call for N#CC(c1ccccc1)(c1ccccc1)[C@@H](c1ccccc1)[C@H](Cc1ccccc1)NS(=O)(=O)c1ccccc1 .
Given back: NO

Asked: I would be grateful if you could indicate the recorded call for O=C(NCCCCNCCCNC(=O)c1ccccc1)c1ccccc1 .
Given back: NO

Asked: I would be grateful if you could indicate the recorded call for CC[C@]1(Cc2ccc(OC)c(OC)c2)C=[N+]([O-])O[C@H](OC2CCCC2(c2ccccc2)c2ccccc2)[C@@H]1OC(=O)c1ccccc1 (some centres not stated) .
Given back: NO

Asked: I would be grateful if you could indicate the recorded call for CC1=CCC2CC1NC(=O)CCOCCC(=O)NC2(C)C (configuration not stated) .
Given back: NO

Asked: I would be grateful if you could indicate the recorded call for COC(=O)[C@H](Cc1c[nH]c2ccccc12)NC(=O)c1ccc(CNC(=O)/C(C)=C/c2ccccc2)cc1 .
Given back: NO

Asked: I would be grateful if you could indicate the recorded call for CCCCC(=O)Nc1ccc2cc(C(=O)OC)c(=O)[nH]c2n1 .
Given back: NO

Asked: I would be grateful if you could indicate the recorded call for COc1cc2c(cc1OCCCCCOc1cc3c(cc1OC)C(=O)N1CCC[C@H]1CN3)N=C[C@@H]1CCCN1C2=O .
Given back: YES

Asked: I would be grateful if you could indicate the recorded call for CCN(CC)CC1CCCCN1CC(=O)N1c2ccccc2C(=O)Nc2cccnc21 (configuration not stated) .
Given back: NO

Asked: I would be grateful if you could indicate the recorded call for O=C1c2ccccc2C(=O)c2c(NC(=O)C(Cl)CCl)cccc21 (configuration not stated) .
Given back: YES

Asked: I would be grateful if you could indicate the recorded call for Cn1c2c(c3ccccc31)CCN1C(=O)CN(C(=O)C3CCCCC3)CC21 (configuration not stated) .
Given back: NO

Asked: I would be grateful if you could indicate the recorded call for CCOC(=O)C1=CNC(C(=O)OCC)C1c1cccn1-c1ccccc1 (configuration not stated) .
Given back: NO

Asked: I would be grateful if you could indicate the recorded call for Cc1cc2c(cc1O)CC[C@@H]1[C@@H]2CC[C@]2(C)[C@@H](O)CC[C@@H]12 .
Given back: NO

Asked: I would be grateful if you could indicate the recorded call for CCC(=O)NC(Nc1ccccc1F)(C(F)(F)F)C(F)(F)F .
Given back: NO

Asked: I would be grateful if you could indicate the recorded call for CC(Oc1ccc2c(-c3ccccc3)cc(=O)oc2c1)C(=O)O (configuration not stated) .
Given back: NO

Asked: I would be grateful if you could indicate the recorded call for CC(=O)c1c(SCCN2CCCCCC2)n(-c2ccccc2)c(=S)n(-c2ccccc2)c1=O .
Given back: YES

Asked: I would be grateful if you could indicate the recorded call for Nc1nc(O)c(N)c(NCCOCP(=O)(O)O)n1 .
Given back: NO

Asked: I would be grateful if you could indicate the recorded call for COc1ccc([C@@H]2C[C@@H]3C(=O)OC(=O)[C@@H]3c3c2c2ccccc2n3C)cc1 .
Given back: NO

Asked: I would be grateful if you could indicate the recorded call for CC(N)C(C)c1ccccc1 (configuration not stated) .
Given back: NO

Asked: I would be grateful if you could indicate the recorded call for Clc1ccc(C[P+](c2ccccc2)(c2ccccc2)c2ccccc2)cc1Cl .
Given back: NO

Asked: I would be grateful if you could indicate the recorded call for O=c1[nH]c2cc(F)c(F)cc2nc1Cc1ccccc1 .
Given back: NO
